Reported melting point is given for each of the following compounds.
Please reply with the bare figure in °C and do not write the unit itself.

compound: CC(S)C(=O)N(C)CCO (centres unmarked)
melting point (°C): 95

compound: COCCCNC(=O)C(C)S (centres unmarked)
melting point (°C): 97

compound: COCC(C)NC(=O)C(C)S (centres unmarked)
melting point (°C): 60

compound: CC(S)C(=O)NCC1CCCO1 (centres unmarked)
melting point (°C): 82

compound: CC(S)C(=O)NCCN(C)C (centres unmarked)
melting point (°C): 83

compound: CCN(CC)CCCNC(=O)C(C)S (centres unmarked)
melting point (°C): 65

compound: COCCN(CCOC)C(=O)C(C)S (centres unmarked)
melting point (°C): 85

Would you kindly look at the next entry?
Req: Given the compound CC(S)C(=O)N(CCO)C(C)C (centres unmarked) , what is its reported melting point?
Resp: 100

// data source = patent US7341715B2
